These data points were gathered from patent US20250136555A1.

- Test method notes: Pharmacokinetic evaluation in rats
- Type: in vivo, SD rats
- Run parameters: male, SD, rat, plasma, 2 mg/kg, intravenous injection, 2 mpk, read-out: Area under the curve AUC(0-∞)
Quantity: AUC(0-inf) (ng·h/mL)
One number for each entry, in ng·h/mL.

*Q* Can you look up the measured AUC(0-inf) of `Cc1cc(CN2C(=O)CN(c3ccc(C(F)(F)F)cc3)C2=O)cc(C)c1OC(C)(C)C(=O)O` for me?
*A* 4250

---

So I've got a bunch of compounds here, and I need their pEC50 values.
- Assayed target: PPARδ (Homo sapiens)
- Construct: expressed in transfected cells; host or cells: COS-7
- Sequence (Q03181 211-439 limits assumed): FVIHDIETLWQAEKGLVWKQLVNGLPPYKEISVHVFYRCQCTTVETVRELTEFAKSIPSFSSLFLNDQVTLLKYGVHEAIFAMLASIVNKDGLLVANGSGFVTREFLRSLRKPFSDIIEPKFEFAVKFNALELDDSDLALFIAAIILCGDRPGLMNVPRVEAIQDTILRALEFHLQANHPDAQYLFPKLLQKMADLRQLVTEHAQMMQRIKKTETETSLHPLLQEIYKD
- Test method notes: GAL4 hybrid reporter gene method, PPARδ agonistic activity
- Assay type: cell-based
- Run parameters: Cos-7 cells, Gal4-PPARδ (LBD); GW501516 10 nM = 100%; 16 h
Numbers only, as −log10 of the molar value.

Record excerpt, results attached:
Cc1cc(CCCN2C(=O)CN(c3ccc(C(F)(F)F)cc3)C2=O)cc(C)c1OC(C)(C)C(=O)O; 7.69
CC(C)(Oc1c(Br)cc(CN2C(=O)CN(c3ccc(C(F)(F)F)cc3)C2=O)cc1Br)C(=O)O; 7.63
Cc1cc(CN2C(=O)CN(c3ccc(C(F)(F)F)c(Cl)c3)C2=O)cc(C)c1OC(C)(C)C(=O)O; 8.77
CCc1ccc(N2CC(=O)N(Cc3cc(C)c(OC(C)(C)C(=O)O)c(C)c3)C2=O)cc1; 8.20
Cc1cc(CN2C(=O)CN(c3ccc(C#N)cc3)C2=O)cc(C)c1OC(C)(C)C(=O)O; 7.07
Cc1cc(CN2C(=O)CN(c3ccc(C(F)(F)F)cc3)C2=O)ccc1OC(C)(C)C(=O)O; 7.72

Provide the reported pEC50 of each entry below, same order.
1. Cc1cc(CN2C(=O)CN(c3cccc(C(F)(F)F)c3)C2=O)cc(C)c1OC(C)(C)C(=O)O
2. CC(C)(Oc1c(Cl)cc(CN2C(=O)CN(c3ccc(C(F)(F)F)cc3)C2=O)cc1Cl)C(=O)O
3. Cc1cc(CN2C(=O)N(c3ccc(C(F)(F)F)cc3)C(=O)C2(C)C)cc(C)c1OC(C)(C)C(=O)O
4. Cc1cc(CN2C(=O)CN(c3ccc(C(F)(F)F)c(F)c3)C2=O)cc(C)c1OC(C)(C)C(=O)O
5. Cc1cc(CN2C(=O)CN(c3ccc(F)cc3)C2=O)cc(C)c1OC(C)(C)C(=O)O

*A*
1: 8.23; 2: 7.61; 3: 8.19; 4: 9.10; 5: 7.14

Provide the reported pEC50 of each entry below, same order.
1. Cc1cc(CCN2C(=O)CN(c3ccc(C(F)(F)F)cc3)C2=O)cc(C)c1OC(C)(C)C(=O)O
2. Cc1cc(CN2CC(=O)N(c3ccc(C(F)(F)F)cc3)C2=O)cc(C)c1OC(C)(C)C(=O)O
3. Cc1cc(CN2C(=O)CN(c3ccc(-c4ccccc4)cc3)C2=O)cc(C)c1OC(C)(C)C(=O)O

*A*
[8.36, 7.09, 8.21]
